- System: LAD2 human mast cells
- assay name: LAD2 degranulation assay (β-hexosaminidase release), with MrgprX2 siRNA knockdown
- Format: cell-based
- assay context: compound 48/80 0.1, mastoparan 5, icatibant 10, atracurium 25, ciprofloxacin 75 μg/ml
- Procedure: LAD2 cells were sensitized for 20 hours with 0.5 μg/ml biotin-conjugated human IgE (Abbiotec). […] The β-hexosaminidase released into the supernatants and in cell lysates was quantified by hydrolysis of p-nitrophenyl N-acetyl-β-D-glucosamide (Sigma-Aldrich) in 0.1 M sodium citrate buffer (pH 4.5) for 90 minutes at 37° C. The percentage of β-hexosaminidase release was calculated as a percent of total content. […]
parameter: β-hexosaminidase release in MrgprX2 siRNA vs control siRNA cells

molecule: COc1ccc(CC2c3cc(OC)c(OC)cc3CC[N+]2(C)CCC(=O)OCCCCCOC(=O)CC[N+]2(C)CCc3cc(OC)c(OC)cc3C2Cc2ccc(OC)c(OC)c2)cc1OC (stereo not shown)
observed result: significantly reduced

molecule: O=C(O)c1cn(C2CC2)c2cc(N3CCNCC3)c(F)cc2c1=O
observed result: significantly reduced

molecule: CC[C@H](C)[C@H](N)C(=O)N[C@@H](CC(N)=O)C(=O)N[C@@H](CC(C)C)C(=O)N[C@@H](CCCCN)C(=O)N[C@@H](C)C(=O)N[C@@H](CC(C)C)C(=O)N[C@@H](C)C(=O)N[C@@H](C)C(=O)N[C@@H](CC(C)C)C(=O)N[C@@H](C)C(=O)N[C@@H](CCCCN)C(=O)N[C@@H](CCCCN)C(=O)N[C@H](C(=O)N[C@@H](CC(C)C)C(N)=O)[C@@H](C)CC
observed result: significantly reduced

molecule: NC(N)=NCCC[C@@H](N)C(=O)N[C@@H](CCCN=C(N)N)C(=O)N1CCC[C@H]1C(=O)N1C[C@H](O)C[C@H]1C(=O)NCC(=O)N[C@@H](Cc1cccs1)C(=O)N[C@@H](CO)C(=O)N1Cc2ccccc2C[C@@H]1C(=O)N1[C@H](C(=O)N[C@@H](CCCN=C(N)N)C(=O)O)C[C@@H]2CCCC[C@@H]21
observed result: significantly reduced

Values from patent US10696971B2
